This listing pairs compounds with measured melting point.

> print(dat)
                                   compound    measurement
1           Cc1ccc(-c2ccc(C(=O)O)cc2)c(N)c1  273 to 278 °C
2  CCc1ccccc1NC=C1C(=O)N(c2cccc(-c3nnn[nH]3)c2)N=C1C         262 °C
3          O=[N+]([O-])c1cc(Cl)ccc1-n1cccc1    55 to 56 °C
4  COC(=O)c1cc(NC(=O)C(F)(F)F)c2cc(Cc3ccc(F)cc3)cnc2c1O  191 to 192 °C
5        COCc1cc2c(Nc3cccc(Cl)c3)ncnc2[nH]1  226 to 230 °C

Using the record for CC(C)(C)c1cc(C=Cc2ccccc2NC(=O)N(Cc2ccccc2)Cc2ccccc2)cc(C(C)(C)C)c1O , report its melting point.
175 to 178 °C

Another: Cc1nc(-c2ccc(OCCCn3ccnc3)cc2)no1
110 to 112 °C

Can you handle O=c1nc(-c2ccccn2)sc2ccc(O)cc12 next?
313 to 315 °C

Next compound up: COc1ccc(C(=O)NNC(=O)c2occ(-c3ccccc3)c2-c2ccccc2)cc1NC(=O)OC(C)(C)C
137 to 141 °C

And for CSc1ccc(C=C2CCc3cc(OCCn4ccnc4)ccc3C2=O)cc1 ?
161 to 162 °C

Now the compound CCOC(=O)CCCn1c(Nc2ccc(Cl)cc2)nc2c(Cl)ccc(C(CC)CC)c21
149 to 150 °C

Next compound: CN1CC(=O)OC2(CCN(CC=CC(=O)Nc3cc4c(Nc5ccc(F)c(Cl)c5)ncnc4cc3OCC3CC3)CC2)C1
125 to 130 °C

# iterate: C=Cc1ccc2c3ccc(C=C)cc3n(CC(CC)CCCC)c2c1 (centres undefined)
59 to 60 °C

Follow-up item: CCCc1nn(C)c2c1N=C(c1cc(CCC(=O)O)ccc1OCC)NC2
165 to 167 °C

Input C=CC(C)(C)OC(=O)c1c(C)nc2c(cnn2CCCCC)c1N
77.7 to 78.5 °C

Also check CN(C)CCCOc1ccc(-c2nn(CC(=O)OCc3ccccc3)c3ncccc23)cc1
90 to 92 °C

====

# melting point per entry

Answered examples (5):
> print(dat)
                                   molecule    measurement
1  CCOP(=O)(/C=C/c1cn(-c2ccccc2)nc1OCc1ccc(OCc2nc(-c3cccc(CC(=O)O)c3)oc2C)c(OC)c1)OCC  174 to 175 °C
2  O=Cc1ccc(-c2ccc3ncnc(Nc4ccc(OCc5cccc(F)c5)c(Cl)c4)c3c2)cc1  237 to 238 °C
3  CCOC(=O)C(C(=O)OCC)(c1ccccc1)N1CCN(CCO)CC1    63 to 64 °C
4  COC(=O)COC(=O)COc1ccc(-c2coc3cc(OCC(=O)OCC(=O)OC)ccc3c2=O)cc1  111 to 114 °C
5                Cc1cc(-c2ccccc2)c2ccccc2n1  100 to 101 °C

Bench note: what melting point did CC(C)Cn1c(=O)n(C)c(=O)c2c(C#CCCCO)n(Cc3cccc4ccccc34)cc21 show?
176 to 177 °C

What would you report for OCc1ccc2c(c1)ncn2-c1cccc(COCc2ccccn2)c1 ?
101 to 103 °C

What about this molecule? CC(=O)NC1CCc2[nH]c3ccccc3c2C1 (centres undefined)
170 °C

Could you do the same for OCCN1CCN(C2Cc3ccccc3Sc3cc(F)c(Cl)cc32)CC1 (centres undefined) , please?
150 to 152 °C
